Where these numbers come from: patent US10301284B2

Test: Pharmacokinetic evaluation, oral exposure in rats
Type: in vivo
Conditions: rat; male Sprague-Dawley rats, single oral dose 10 mg/kg via oral gavage, plasma; read-out: AUC
measure.name: AUC

>>> print(df.to_string())
                            structure_smiles  measure_name            assay_value
 0  Cc1cnc2c(S(C)(=O)=O)cc(Cn3cc(C(=O)NCc4c(C)cc(N)nc4C)c(C#N)n3)cc2c1           AUC          < 100 ng·h/mL
 1  Cc1cc(N)nc(C)c1CNC(=O)c1cnn(Cc2ccc3ncc(Cl)cc3c2)c1           AUC    100 to 1000 ng·h/mL
 2  CC(=O)Nc1cn(Cc2ccc3ncc(Cl)cc3c2)nc1C(=O)NCc1c(C)cc(N)nc1C           AUC    100 to 1000 ng·h/mL
 3  Cc1cc(N)nc(C)c1CNC(=O)c1nn(Cc2ccc3ncc(Cl)cc3c2)nc1C#N           AUC    100 to 1000 ng·h/mL
 4  Cc1cc(N)nc(C)c1CNC(=O)c1cn(Cc2ccc3ncc(Cl)cc3c2)c(N)n1           AUC          < 100 ng·h/mL
 5  Cc1cc(N)nc(C)c1CNC(=O)c1cn(Cc2ccc3ncc(Cl)cc3c2)cn1           AUC    100 to 1000 ng·h/mL
 6  Cc1nc(N)ccc1CNC(=O)c1nn(Cc2ccc3ncc(Cl)cc3c2)c2ccc(=O)[nH]c12           AUC    100 to 1000 ng·h/mL
 7  Cc1cnc2c(C(C)(C)O)cc(Cn3ncc(C(=O)NCc4c(C)cc(N)nc4C)c3C#N)cc2c1           AUC          < 100 ng·h/mL
 8  Cc1cc(N)nc(C)c1CNC(=O)c1cnc(Cc2ccc3ncc(Cl)cc3c2)o1           AUC  1000 to 10000 ng·h/mL
 9  Cc1cc(N)nc(C)c1CNC(=O)c1ncc(Cc2ccc3ncc(Cl)cc3c2)o1           AUC  1000 to 10000 ng·h/mL
10  Cc1cc(N)nc(C)c1CNC(=O)c1cn(Cc2ccc3ncc(Cl)cc3c2)nc1N           AUC    100 to 1000 ng·h/mL
